Numbers sourced from paper PMC5540273.

# Test system: PIP5K2B
# Condition info: concentration: 1 μM, replicates: in singlicate; n = 1;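 further: KINOMEscan kinase panel screen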
Lab note: compare %Inh against 20%. Equal or greater, write condition met. Smaller, write condition not met.

O=C(Nc1ccc2c(c1)OCO2)NC1CCN(c2ccnc(Nc3ccc(F)cc3)n2)C1 (stereo not shown) [GSK1379724] : condition not met
COc1cccc(-c2cc(-c3c[nH]nc3-c3ccccn3)ccn2)c1 [GW680338] : condition met
COC(=O)c1c(-c2ccccc2)c2cc(C(=O)O)ccc2c(=O)n1Cc1ccccc1 : condition met
Cc1csc(-c2nc(Nc3ccncc3)c3ccccc3n2)n1 [GW869640] : condition not met
Nc1nc(-c2nccs2)c(-c2ccnc3ccccc23)s1 [GW693542] : condition not met
Fc1cc(Cl)ccc1Nc1ccnc2cc(I)ccc12 [GW551191] : condition not met
COc1ccccc1CNC(=O)c1cc(C(=O)c2ccccc2C)c[nH]1 [GSK364507] : condition not met
O=C(O)COc1ncnc2cc(-c3ccc4[nH]ncc4c3)sc12 : condition not met
Cc1cccc(-c2nc(-c3ccc(S(C)(=O)=O)cc3)sc2-c2ccnc(NCCc3ccccc3)c2)c1 : condition met
Cc1c(Cn2ccn3c(=O)cc(N4CCOCC4)nc23)cccc1C(F)(F)F [GSK2289044] : condition not met

---

Entries and their %Inh values follow.
# Tested on: DAPK2
# Condition info: concentration: 1 μM, replicates: in singlicate; n = 1
Experimental readout: %Inh

O=C(Nc1n[nH]c2nc(-c3nccs3)c(Br)cc12)C1CC1 : 0%
Cc1cc(NCC(c2ccccc2)c2ccccc2)nc(NCc2ccc(C(F)(F)F)cc2)n1 : 0%
CS(=O)(=O)c1ccc(-c2nc3n(c2-c2ccncc2)CCC3)cc1 : 0%
Cc1cccc(-c2nc(-c3ccc(S(C)(=O)=O)cc3)sc2-c2ccnc(NCCc3ccccc3)c2)c1 : 15%
Cc1cccc(-c2nc(Nc3ccc4[nH]ncc4c3)c3ccccc3n2)n1 : 20%
O=c1cc(N2CCOCC2)nc2n(Cc3cccc(Cl)c3Cl)ccn12 : 7%
Cl.c1ccc(-c2n[nH]cc2-c2ccnc(-c3ccc(CN4CCOCC4)cc3)c2)nc1 : 12%
Cl.O=C(Nc1cccc(-c2nn3ncccc3c2-c2ccnc(Nc3cccnc3)n2)c1)c1c(F)cccc1F : 27%
COc1ccc(Nc2nccc(NCCNC(=O)Nc3ccccc3F)n2)cc1 : 0%
Nc1nc(-c2nccs2)c(-c2ccnc3ccccc23)s1 : 0%
Cc1cccc(-c2nc(Nc3cccc(C(N)=O)c3)c3ccccc3n2)n1 : 0%
Cc1ccc(-c2cc(-c3c[nH]nc3-c3ccccn3)ccn2)cc1 : 9%
Cn1cncc1-c1ccc2ncnc(Nc3ccc(OCc4ccccc4)cc3)c2c1 : 0%
COc1cc2ncn(-c3cc(OCC4CCCO4)c(C(N)=O)s3)c2cc1OC (stereo not shown) : 0%
Cc1cccc(-c2nc(Nc3ccncc3)c3ccccc3n2)n1 : 7%
Cc1cc(N2Cc3ccccc3C2)nc(Nc2ccc(S(=O)(=O)N3CCOCC3)cc2)n1.Cl : 5%

---

# Test system: YANK1
# Construct: gene STK32A
# Condition info: concentration: 1 μM, replicates: in singlicate; n = 1
Experimental readout: %Inh (%)

Cc1ccc(C(=O)Nc2ccc(Nc3ccnc4cc(-c5ccccn5)ccc34)cc2O)cc1.Cl : 0
Cc1cccc(-c2nc(Nc3cccc(C(N)=O)c3)c3ccccc3n2)n1 : 0
O=C(O)COc1ncnc2cc(-c3ccc4[nH]ncc4c3)sc12 : 12
